- Protocol: HPLC retention time according to hydrophobicity
- Format: physicochemical
- Details: chromatographic, C18 5 μm 9.4 × 250 mm; A 0.1% trichloroacetic acid, B 0.1% trichloroacetic acid with 90% acetonitrile; linear 5% B to 50% B; 1 mL/min; 35 °C; 280 nm; varies according to hydrophobicity
Where a SMILES comes first, the peptide text is derived from it.
Please provide measured Retention Time for the entries that follow.
Dear colleague, please return just the value in min, with no unit written.

What does the data say about its Retention Time? Entry: CC[C@H](C)[C@H](NC(=O)[C@H](CCSC)NC=O)C(=O)N[C@H](C(=O)NCC(=O)N[C@@H](CC(N)=O)C(=O)N[C@@H](C)C(=O)N[C@@H](CC(=O)O)C(=O)NP(=O)(OCCCN)OC[C@H]1O[C@@H](n2cnc3c(N)ncnc32)[C@H](O)[C@@H]1O)[C@@H](C)O (some centres unmarked) [R2I] (HELM PEPTIDE1{[O=C[*:2]].M.I.T.G.N.A.[NCCCOP(=O)(NC(=O)[C@H](CC(=O)O)N[*:1])OC[C@H]1O[C@@H](n2cnc3c(N)ncnc32)[C@H](O)[C@@H]1O]}$$$$V2.0)
18.166

CSCC[C@H](NC=O)C(=O)N[C@@H](CCC(N)=O)C(=O)N[C@H](C(=O)NCC(=O)N[C@@H](CC(N)=O)C(=O)N[C@@H](C)C(=O)N[C@@H](CC(=O)O)C(=O)NP(=O)(OCCCN)OC[C@H]1O[C@@H](n2cnc3c(N)ncnc32)[C@H](O)[C@@H]1O)[C@@H](C)O (some centres unmarked) [R2Q] (HELM PEPTIDE1{[O=C[*:2]].M.Q.T.G.N.A.[NCCCOP(=O)(NC(=O)[C@H](CC(=O)O)N[*:1])OC[C@H]1O[C@@H](n2cnc3c(N)ncnc32)[C@H](O)[C@@H]1O]}$$$$V2.0) ?
16.910

CSCC[C@H](NC=O)C(=O)N[C@@H](CC(=O)O)C(=O)N[C@H](C(=O)NCC(=O)N[C@@H](CC(N)=O)C(=O)N[C@@H](C)C(=O)N[C@@H](CC(=O)O)C(=O)NP(=O)(OCCCN)OC[C@H]1O[C@@H](n2cnc3c(N)ncnc32)[C@H](O)[C@@H]1O)[C@@H](C)O (some centres unmarked) [R2D] (HELM PEPTIDE1{[O=C[*:2]].M.D.T.G.N.A.[NCCCOP(=O)(NC(=O)[C@H](CC(=O)O)N[*:1])OC[C@H]1O[C@@H](n2cnc3c(N)ncnc32)[C@H](O)[C@@H]1O]}$$$$V2.0) ?
17.625

CSCC[C@H](NC=O)C(=O)N[C@@H](Cc1c[nH]cn1)C(=O)N[C@H](C(=O)NCC(=O)N[C@@H](CC(N)=O)C(=O)N[C@@H](C)C(=O)N[C@@H](CC(=O)O)C(=O)NP(=O)(OCCCN)OC[C@H]1O[C@@H](n2cnc3c(N)ncnc32)[C@H](O)[C@@H]1O)[C@@H](C)O (some centres unmarked) [R2H] (HELM PEPTIDE1{[O=C[*:2]].M.H.T.G.N.A.[NCCCOP(=O)(NC(=O)[C@H](CC(=O)O)N[*:1])OC[C@H]1O[C@@H](n2cnc3c(N)ncnc32)[C@H](O)[C@@H]1O]}$$$$V2.0) ?
16.872

CSCC[C@H](NC=O)C(=O)N[C@@H](CC(C)C)C(=O)N[C@H](C(=O)NCC(=O)N[C@@H](CC(N)=O)C(=O)N[C@@H](C)C(=O)N[C@@H](CC(=O)O)C(=O)NP(=O)(OCCCN)OC[C@H]1O[C@@H](n2cnc3c(N)ncnc32)[C@H](O)[C@@H]1O)[C@@H](C)O (some centres unmarked) [R2L] (HELM PEPTIDE1{[O=C[*:2]].M.L.T.G.N.A.[NCCCOP(=O)(NC(=O)[C@H](CC(=O)O)N[*:1])OC[C@H]1O[C@@H](n2cnc3c(N)ncnc32)[C@H](O)[C@@H]1O]}$$$$V2.0) ?
19.425
